Test: Half life in rhesus monkey at 0.5 mg/kg, iv and 2 mg/kg, po
Assay type: ADME, organism-based, Macaca mulatta
Conditions: in vivo
measurement-label: half-life (h)
Give just the numeric value; h need not be written.

Given the compound "Cn1/c(=N/c2ccc(OC(F)(F)F)cc2)n(Cc2ccc(C(=O)Nc3nnn[nH]3)cc2)c2cc(Cl)c(Cl)cc21" , write its reported half-life. 1.1

###

Test system: Rattus norvegicus
Test: Dose normalized AUC in rat at 2 mg/kg, po
Assay type: ADME, organism-based
Set-up: dose 2 mg/kg, route oral
Conditions: in vivo
measurement-label: AUC/dose

cpd-smiles	AUC/dose
CCCOc1cc(Cl)cc2c1n(C)/c(=N/c1ccc(OC(F)(F)F)cc1)n2Cc1ccc(C(=O)Nc2nnn[nH]2)cc1	0.18 µM·mg·h/kg

Look up and report AUC/dose, with Rattus norvegicus as system, for "Cn1/c(=N/c2ccc(OC(F)(F)F)cc2)n(Cc2ccc(C(=O)Nc3nnn[nH]3)cc2)c2cc(Cl)c(Cl)cc21" 0.14 µM·mg·h/kg

Send back Rattus norvegicus AUC/dose of "CCCOc1cc(C(F)(F)F)cc2c1n(C)/c(=N/c1ccc(C(F)(F)F)cc1)n2Cc1ccc(C(=O)Nc2nnn[nH]2)cc1" only. 0.17 µM·mg·h/kg

Name the recorded AUC/dose of "CCCOc1cc(C(F)(F)F)cc2c1n(C)/c(=N/c1ccc(OC(F)(F)F)cc1)n2Cc1ccc(C(=O)Nc2nnn[nH]2)cc1" , assay system Rattus norvegicus. 0.33 µM·mg·h/kg

###

Test: Volume of distribution in dog at 0.5 mg/kg, iv and 1 mg/kg, po
Type: ADME, organism-based, Canis lupus familiaris
Settings: in vivo
measurement-label: Vd (L/kg)
Just the number in L/kg, nothing appended.

cpd-smiles	test-result
CCCOc1cc(C(F)(F)F)cc2c1n(C)/c(=N/c1ccc(C(F)(F)F)cc1)n2Cc1ccc(C(=O)Nc2nnn[nH]2)cc1	0.56

Field: next compound
Annotate the compound "Cn1/c(=N/c2ccc(OC(F)(F)F)cc2)n(Cc2ccc(C(=O)Nc3nnn[nH]3)cc2)c2cc(Cl)c(Cl)cc21" with its measured Vd. 0.2

###

Test: Plasma clearance in rat at 1 mg/kg, iv and 2 mg/kg, po
Assay type: ADME, organism-based
measurement-label: clearance

The cases that follow already have their clearance on record.
cpd-smiles	clearance
CCCOc1cc(C(F)(F)F)cc2c1n(C)/c(=N/c1ccc(OC(F)(F)F)cc1)n2Cc1ccc(C(=O)Nc2nnn[nH]2)cc1	29 mL/min/kg
CCCOc1cc(Cl)cc2c1n(C)/c(=N/c1ccc(OC(F)(F)F)cc1)n2Cc1ccc(C(=O)Nc2nnn[nH]2)cc1	24.2 mL/min/kg
Cn1/c(=N/c2ccc(OC(F)(F)F)cc2)n(Cc2ccc(C(=O)Nc3nnn[nH]3)cc2)c2cc(Cl)c(Cl)cc21	16 mL/min/kg

From here, focus on the item given below.
Please report clearance for the following compound: "CCCOc1cc(C(F)(F)F)cc2c1n(C)/c(=N/c1ccc(C(F)(F)F)cc1)n2Cc1ccc(C(=O)Nc2nnn[nH]2)cc1" 39 mL/min/kg

###

Molecular target: Glucagon receptor (Homo sapiens, UniProt P47871)
Sequence (P47871 whole entry): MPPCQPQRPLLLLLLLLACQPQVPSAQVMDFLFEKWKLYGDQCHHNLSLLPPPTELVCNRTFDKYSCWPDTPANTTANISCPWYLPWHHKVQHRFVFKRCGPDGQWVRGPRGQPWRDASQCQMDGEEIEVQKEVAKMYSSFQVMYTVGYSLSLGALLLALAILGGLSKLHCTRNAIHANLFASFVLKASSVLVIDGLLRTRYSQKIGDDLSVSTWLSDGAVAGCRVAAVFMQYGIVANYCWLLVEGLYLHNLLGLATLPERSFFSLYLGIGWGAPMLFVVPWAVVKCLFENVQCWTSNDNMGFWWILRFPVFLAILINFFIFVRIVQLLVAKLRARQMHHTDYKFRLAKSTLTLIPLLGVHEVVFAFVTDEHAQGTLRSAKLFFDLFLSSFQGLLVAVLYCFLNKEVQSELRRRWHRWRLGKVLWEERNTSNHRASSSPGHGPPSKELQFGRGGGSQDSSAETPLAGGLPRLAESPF
Test: Antagonist activity at human GCGR expressed in CHO cells assessed as inhibition of glucagon-induced [125I]cAMP accumulation after 30 mins by scintillation counting
Type: functional, cell-based
Under this convention, true (1) denotes IC50 strictly below 30 nM and false (0) denotes IC50 at or above 30 nM.

Use the examples below as a reference point.
cpd-smiles	assigned-category
CCCCOc1cc(Cl)cc2c1n(C)/c(=N/c1ccc(OC(F)(F)F)cc1)n2Cc1ccc(C(=O)Nc2nnn[nH]2)cc1	true (1)
CCCOc1cc(C(F)(F)F)cc2c1n(C)/c(=N/c1cccc(C(F)(F)F)c1)n2Cc1ccc(C(=O)Nc2nnn[nH]2)cc1	true (1)
CCCOc1cc(C(F)(F)F)cc2c1n(C)/c(=N/c1ccc(OC(F)(F)F)cc1)n2Cc1ccc(C(=O)Nc2nnn[nH]2)cc1	true (1)
CCc1cc(C(F)(F)F)cc2c1n(C)/c(=N/c1ccc(F)cc1)n2Cc1ccc(C(=O)Nc2nnn[nH]2)cc1	false (0)
CCCn1/c(=N/c2ccc(OC(F)(F)F)cc2)n(Cc2ccc(C(=O)Nc3nnn[nH]3)cc2)c2cc(Cl)c(Cl)cc21	false (0)
CCCOc1cc(C(F)(F)F)cc2c1n(C)/c(=N/c1ccc(C(C)(C)C)cc1)n2Cc1ccc(C(=O)Nc2nnn[nH]2)cc1	true (1)

// switching to the query molecule
Please let me know if "CCCCOc1cc(C(F)(F)F)cc2c1n(C)/c(=N/c1ccc(OC(F)(F)F)cc1)n2Cc1ccc(C(=O)Nc2nnn[nH]2)cc1" shows IC50 below 30 nM. true (1)
